Origin of values: the supplement of paper PMC10567573

Hi there, I'd appreciate the recorded protein stability index for every entry that follows.
B1: CASP6 (parent)
chain: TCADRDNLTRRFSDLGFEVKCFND

Variants of: B1
EXPERIMENT SUMMARY: protein stability index of a GFP-peptide fusion (GPS, HEK-293T) (PSI 1-6); higher = more stable;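 further: lentivirally expressed fusions sorted by FACS into six bins by GFP to DsRed ratio, PSI derived from sequencing read proportions per bin multiplied by bin number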
MEASUREMENT CONTEXT: c terminus: a fixed tail appended
Form field (numeric): enter value without unit.

// returns reported protein stability index for input D14T
2.27

Now the same for N23T
3.28

Cool, now F22H
3.86

Again, but for D4R
2.95

# iterate: V19M
3.49

Now give it for L8M too.
3.03
